Counter-ions that a name gives are not always drawn.
List of IC50 tested on JAK3 (Homo sapiens).
Sequence (P52333 whole entry, species assumed): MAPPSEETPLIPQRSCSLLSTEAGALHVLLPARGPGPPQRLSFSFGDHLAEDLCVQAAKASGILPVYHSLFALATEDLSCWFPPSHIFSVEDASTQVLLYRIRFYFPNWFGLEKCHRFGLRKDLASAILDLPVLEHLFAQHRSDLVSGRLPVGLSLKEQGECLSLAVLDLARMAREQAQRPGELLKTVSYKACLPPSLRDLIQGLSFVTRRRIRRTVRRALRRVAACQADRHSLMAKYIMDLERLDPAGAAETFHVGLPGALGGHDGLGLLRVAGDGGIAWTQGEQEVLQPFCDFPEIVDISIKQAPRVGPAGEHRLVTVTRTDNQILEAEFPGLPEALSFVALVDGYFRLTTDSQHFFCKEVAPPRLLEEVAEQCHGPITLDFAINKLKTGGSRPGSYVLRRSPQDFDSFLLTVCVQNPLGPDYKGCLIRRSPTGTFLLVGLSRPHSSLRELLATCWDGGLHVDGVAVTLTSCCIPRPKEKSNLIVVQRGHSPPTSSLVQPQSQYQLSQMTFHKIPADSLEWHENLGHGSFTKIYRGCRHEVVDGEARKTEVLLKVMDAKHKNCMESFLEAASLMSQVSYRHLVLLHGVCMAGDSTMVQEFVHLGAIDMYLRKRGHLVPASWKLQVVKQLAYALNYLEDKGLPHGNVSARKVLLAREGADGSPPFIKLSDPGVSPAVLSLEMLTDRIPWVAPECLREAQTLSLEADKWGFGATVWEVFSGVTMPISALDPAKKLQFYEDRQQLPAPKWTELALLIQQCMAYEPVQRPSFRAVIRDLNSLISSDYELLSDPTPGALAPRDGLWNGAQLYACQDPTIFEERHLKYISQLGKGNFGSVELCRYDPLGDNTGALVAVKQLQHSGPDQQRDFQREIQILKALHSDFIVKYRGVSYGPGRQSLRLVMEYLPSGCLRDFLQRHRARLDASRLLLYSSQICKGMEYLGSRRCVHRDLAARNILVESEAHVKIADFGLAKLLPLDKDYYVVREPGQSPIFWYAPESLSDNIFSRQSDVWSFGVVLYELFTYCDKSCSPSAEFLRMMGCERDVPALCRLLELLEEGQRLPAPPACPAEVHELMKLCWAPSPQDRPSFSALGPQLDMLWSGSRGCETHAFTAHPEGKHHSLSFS

molecule: CN(c1ncnc2[nH]ccc12)C1CCC2(CC1)CCN(C(=O)c1ccc(C#N)c(F)c1)CC2 [Compound 87]
IC50: 100 to 1000 nM
--
molecule: COC(=O)N1CC2(CC(N(C)c3ncnc4[nH]ccc34)C2)C1 [Compound 7]
IC50: 1000 to 10000 nM
--
molecule: CN(c1ncnc2[nH]ccc12)C1CC2(C1)CN(C(=O)c1cccc(OC(F)(F)F)c1)C2 [Compound 17]
IC50: ≥ 10000 nM
--
molecule: Cc1cncc(C(=O)N2CC3(CC(N(C)c4ncnc5[nH]ccc45)C3)C2)n1 [Compound 29]
IC50: ≥ 10000 nM
--
molecule: CNCC(=O)N1CCC2(CCC(N(C)c3ncnc4[nH]ccc34)CC2)CC1 [Compound 97, HCl salt]
IC50: 1000 to 10000 nM
--
molecule: C#Cc1ccc(C(=O)N2CC3(CC(N(C)c4ncnc5[nH]ccc45)C3)C2)c(F)c1 [Compound 41]
IC50: 1000 to 10000 nM
--
molecule: CN(c1ncnc2[nH]ccc12)C1CC2(C1)CN(C(=O)CCC(F)(F)F)C2 [Compound 21]
IC50: 1000 to 10000 nM
--
molecule: CN(c1ncnc2[nH]ccc12)C1CCC2(CC1)CCN(C(=O)CCS(C)(=O)=O)CC2 [Compound 86]
IC50: 1000 to 10000 nM
--
molecule: CC(=O)N1CCC2(CCC(N(C)c3ncnc4[nH]ccc34)CC2)CC1 [Compound 75]
IC50: 100 to 1000 nM
--
molecule: CN(c1ncnc2[nH]ccc12)C1CC2(C1)CN(C(=O)c1ccc(C3CC3)cc1)C2 [Compound 39]
IC50: 1000 to 10000 nM
--
molecule: CN(c1ncnc2[nH]ccc12)C1CC2(C1)CN(C(=O)Cc1c[nH]c3ccccc13)C2 [Compound 23]
IC50: 1000 to 10000 nM
--
molecule: Cc1cc(C(=O)N2CC3(CC(N(C)c4ncnc5[nH]ccc45)C3)C2)ccc1C#N [Compound 34]
IC50: 1000 to 10000 nM
--
molecule: CCC(=O)N1CCC2(CCC(N(C)c3ncnc4[nH]ccc34)CC2)CC1 [Compound 78]
IC50: 1000 to 10000 nM
--
molecule: CN(c1ncnc2[nH]ccc12)C1CCC2(CC1)CCN(C(=O)C1CCC(=O)CC1)CC2 [Compound 82]
IC50: 1000 to 10000 nM
--
molecule: CN(c1ncnc2[nH]ccc12)C1CC2(C1)CN(C(=O)Cc1ccc(C#N)cc1)C2 [Compound 15]
IC50: 1000 to 10000 nM
--
molecule: CN(c1ncnc2[nH]ccc12)C1CC2(C1)CN(C(=O)C1(C#N)CC1)C2 [Compound 19]
IC50: 1000 to 10000 nM
--
molecule: CN(c1ncnc2[nH]ccc12)C1CCC2(CC1)CCN(C(=O)CCC#N)CC2 [Compound 81]
IC50: 100 to 1000 nM

* * *

pIC50: −log10 of the molar value. Structures can show the parent of a compound that is named as a salt.
List of pIC50 tested on JAK2 (Homo sapiens, UniProt O60674).
Sequence (O60674 whole entry, species assumed): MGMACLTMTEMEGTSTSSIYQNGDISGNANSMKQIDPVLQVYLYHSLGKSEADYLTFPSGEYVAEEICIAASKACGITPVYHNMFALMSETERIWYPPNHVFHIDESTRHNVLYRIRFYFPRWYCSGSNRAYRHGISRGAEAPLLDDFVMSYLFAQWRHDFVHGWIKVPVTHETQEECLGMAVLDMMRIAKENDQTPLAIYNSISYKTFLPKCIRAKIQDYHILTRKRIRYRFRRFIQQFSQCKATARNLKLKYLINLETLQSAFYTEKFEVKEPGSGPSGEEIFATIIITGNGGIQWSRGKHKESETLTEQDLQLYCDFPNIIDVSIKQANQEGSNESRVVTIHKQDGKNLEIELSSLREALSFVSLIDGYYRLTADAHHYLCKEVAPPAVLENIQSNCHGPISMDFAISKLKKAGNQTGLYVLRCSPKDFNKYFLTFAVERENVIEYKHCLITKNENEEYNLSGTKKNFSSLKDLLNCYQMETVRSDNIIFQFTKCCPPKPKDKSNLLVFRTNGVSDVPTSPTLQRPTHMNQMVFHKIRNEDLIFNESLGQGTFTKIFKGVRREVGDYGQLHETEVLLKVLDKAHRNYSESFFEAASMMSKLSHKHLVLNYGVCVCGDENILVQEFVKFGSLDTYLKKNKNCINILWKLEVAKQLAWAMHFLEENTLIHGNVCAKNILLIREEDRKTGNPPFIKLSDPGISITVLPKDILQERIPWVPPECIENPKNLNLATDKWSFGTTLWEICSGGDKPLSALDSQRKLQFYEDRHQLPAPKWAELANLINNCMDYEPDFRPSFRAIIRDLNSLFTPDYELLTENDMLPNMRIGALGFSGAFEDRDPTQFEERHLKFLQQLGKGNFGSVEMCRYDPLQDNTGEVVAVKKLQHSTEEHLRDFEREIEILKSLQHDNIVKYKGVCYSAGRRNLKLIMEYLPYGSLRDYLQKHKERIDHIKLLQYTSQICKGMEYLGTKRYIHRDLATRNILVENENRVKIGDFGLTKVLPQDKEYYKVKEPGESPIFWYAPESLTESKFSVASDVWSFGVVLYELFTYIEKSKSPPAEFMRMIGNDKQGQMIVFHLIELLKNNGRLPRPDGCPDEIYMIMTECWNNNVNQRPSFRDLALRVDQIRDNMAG

compound: CNCC(=O)N1CCC2(CCC(N(C)c3ncnc4[nH]ccc34)CC2)CC1 [Compound 97, HCl salt]
pIC50: 6.00 to 7.00
//
compound: CN(c1ncnc2[nH]ccc12)C1CCC2(CC1)CCN(C(=O)c1cccc(OC(F)(F)F)c1)CC2 [Compound 101]
pIC50: 6.00 to 7.00
//
compound: CN(c1ncnc2[nH]ccc12)C1CC2(C1)CN(C(=O)c1ccc(C#N)c(F)c1)C2 [Compound 1]
pIC50: 5.00 to 6.00
//
compound: CN(c1ncnc2[nH]ccc12)C1CCC2(CC1)CCN(C(=O)c1cnccn1)CC2 [Compound 88]
pIC50: 6.00 to 7.00
//
compound: CN(c1ncnc2[nH]ccc12)C1CC2(C1)CN(C(=O)c1cc[nH]n1)C2 [Compound 45]
pIC50: 5.00 to 6.00
//
compound: CCCC(=O)N1CCC2(CCC(N(C)c3ncnc4[nH]ccc34)CC2)CC1 [Compound 100]
pIC50: 6.00 to 7.00
//
compound: CN(c1ncnc2[nH]ccc12)C1CC2(C1)CN(C(=O)c1ccc(C#N)cc1F)C2 [Compound 14]
pIC50: 6.00 to 7.00
//
compound: CN(c1ncnc2[nH]ccc12)C1CCC2(CC1)CCN(C(=O)CO)CC2 [Compound 77]
pIC50: 7.00 to 8.00

The measured values listed here are drawn from patent US11365188B2.
